Test system: beta amyloid production
Assay: Repressor Release Assay (RRA)
Format: cell-based
Settings: Conc 20 μg/ml; luciferase activity over diluent control; read-out: APPI Fold Increase
Measure name: fold induction at 20 µg/mL
Just the number, please, no unit attached.

Check out these entries, answers already filled in.
* CC[C@H](C)[C@@H](CO)NS(=O)(=O)c1cc(Cl)cc(Cl)c1 | 2
* CC[C@H](C)[C@@H](CO)NS(=O)(=O)c1ccc(I)cc1 | 2
* C=CCN([C@H](CO)[C@@H](C)CC)S(=O)(=O)c1ccc(Cl)cc1 | 3.4
* CC(C)(C)[C@@H](CO)NS(=O)(=O)c1ccc(Cl)cc1 | 1.5

Ask | Look up and report measured fold induction at 20 µg/mL for this entry: C=C(C)C(O)(C(=C)C)[C@@H](NS(=O)(=O)c1ccc(Br)cc1)[C@@H](C)CC
Reply | 2.8

Ask | Tell us which fold induction at 20 µg/mL value is on record for CC(C)[C@@H](CO)NS(=O)(=O)c1cc(F)c(Br)cc1F
Reply | 2.4

Ask | Tell us which fold induction at 20 µg/mL value is on record for O=S(=O)(NC1(CO)CCc2ccccc21)c1ccc(Cl)cc1 (centres unmarked)
Reply | 2

Ask | State, in one line, measured fold induction at 20 µg/mL of O=S(=O)(N[C@H](CO)c1ccccc1)c1ccccc1F
Reply | 1.8

The reported numbers originate from patent US7166622B2.
